meta.source: ChEMBL document CHEMBL5058577

- Tested on: HEK-293T
- Protocol Text: Multiplex assay against HEK293T
- Type: toxicity, cell-based
- Test Context: human, 24 h, 1 µM, compound concentration 1 uM, replicate 1
Reported Population Mitotic Cells (%) by item:
Parameter Measured: Population Mitotic Cells (%)

1. N#Cc1c(Oc2cccc(OS(=O)(=O)CCCC(F)(F)F)c2)cccc1C(F)(F)F: 71
2. O=C1[C@H](Cc2ccc(O)cc2)N2C(=O)CCN(C(=O)NCc3ccccc3)[C@H]2CN1Cc1cccc2ccccc12: 76
3. Cl.NCCc1ccc(O)c(O)c1 [DOPAMINE HYDROCHLORIDE]: 55
4. CCCCCC(O)/C=C/[C@H]1C(=O)CC(O)C1C/C=C\CCCC(=O)O (some centres not stated): 59
5. Cc1cnc(-c2cc(N3CCN(C(=O)CCS(C)(=O)=O)CC3)ncc2Cl)c(C)c1: 63
6. COc1cccc2c1c(NS(=O)(=O)c1ccc(Cl)s1)nn2Cc1cccc(CNC(=O)C(C)(C)O)c1: 73
7. CC(=O)Nc1cccc2c1c(Sc1ccc(Cl)cc1)c(C)n2CC(=O)O: 79

###

- System: Fibroblast
- Protocol Text: Multiplex assay against human fibroblast
- Assay type: toxicity, cell-based
- Test Context: 48 h, 10 µM, compound concentration 10 uM, replicate 1
Reported Population Apoptotic (%) by item:
Parameter Measured: Population Apoptotic (%)

1) CCCCCC(O)/C=C/[C@H]1C(=O)CC(O)C1C/C=C\CCCC(=O)O (stereo partly drawn): 63
2) Cc1cnc(-c2cc(N3CCN(C(=O)CCS(C)(=O)=O)CC3)ncc2Cl)c(C)c1: 50
3) N#Cc1c(Oc2cccc(OS(=O)(=O)CCCC(F)(F)F)c2)cccc1C(F)(F)F: 52
4) CCCCC1=NC2(CCCC2)C(=O)N1Cc1ccc(-c2ccccc2-c2nnn[nH]2)cc1: 61
5) COC[C@@H](c1ccc(C(F)(F)F)cc1)N1CCN(C2(C)CCN(C(=O)c3c(C)ncnc3C)CC2)C[C@@H]1C.O=C(O)/C=C\C(=O)O [VICRIVIROC MALEATE]: 73
6) O=C(CCCc1ccccc1)Nc1nc2ccccc2c(=O)s1: 58
7) O=C1[C@H](Cc2ccc(O)cc2)N2C(=O)CCN(C(=O)NCc3ccccc3)[C@H]2CN1Cc1cccc2ccccc12: 85
8) O=C(NCCN1CCC(n2c(=O)[nH]c3cc(Cl)ccc32)CC1)c1ccc(F)cc1 [HALOPEMIDE]: 80

###

- System: HEK-293T
- Protocol Text: Multiplex assay against HEK293T
- Type: toxicity, cell-based
- Test Context: human, 24 h, 10 µM, compound concentration 10 uM, replicate 1
So basically: is Population Apoptotic (%) under 40%? Then rule met. Not under? Then rule not met.

1) CCCCC1=NC2(CCCC2)C(=O)N1Cc1ccc(-c2ccccc2-c2nnn[nH]2)cc1 [IRBESARTAN]: rule met
2) COC[C@@H](c1ccc(C(F)(F)F)cc1)N1CCN(C2(C)CCN(C(=O)c3c(C)ncnc3C)CC2)C[C@@H]1C.O=C(O)/C=C\C(=O)O [VICRIVIROC MALEATE]: rule met
3) CC(C)c1noc(N2CCC(COc3ccc(-c4ccc(S(C)(=O)=O)cc4)nc3)CC2)n1 [GSK-1292263]: rule not met
4) CN(C)C(=O)Cn1cc(-c2ccc(-c3cncc4ccccc34)cc2)cn1: rule not met

###

Reported Population Membrane Permeable-Phenotype (%) by item:
- System: HEK-293T
- Protocol Text: Multiplex assay against HEK293T
- Format: toxicity, cell-based
- Test Context: human, 24 h, 10 µM, compound concentration 10 uM, replicate 1
Parameter Measured: Population Membrane Permeable-Phenotype (%)

1) C[C@H](N)COC(=O)[C@@H](CCCCN)NC(=O)Cc1c(-c2ccc3ccccc3c2)[nH]c2c1ccc1ccccc12: 0%
2) Cc1sc2c(c1C)C(c1ccc(Cl)cc1)=N[C@@H](CC(=O)NCCCCCCCCNC(=O)COc1cccc3c1C(=O)N(C1CCC(=O)NC1=O)C3=O)c1nnc(C)n1-2 (stereo partly drawn): 0%
3) CCCOc1ccc2[nH]cc(C3=CCNCC3)c2n1.Cl: 0%
4) Cc1c(CC(=O)O)c2cccnc2n1Cc1ccc(S(C)(=O)=O)cc1C(F)(F)F: 0%
5) CN[C@@H](C)C(=O)N[C@H](C(=O)N1CCC[C@H]1C(=O)Nc1snnc1-c1ccccc1)C1CCCCC1: 0%
6) CCCCC(=O)N(Cc1ccc(-c2ccccc2-c2nnn[nH]2)cc1)[C@H](C(=O)O)C(C)C: 0%
7) COC[C@@H](c1ccc(C(F)(F)F)cc1)N1CCN(C2(C)CCN(C(=O)c3c(C)ncnc3C)CC2)C[C@@H]1C.O=C(O)/C=C\C(=O)O [VICRIVIROC MALEATE]: 0%
8) Br.CS(=O)(=O)Nc1c(O)ccc2c1CCCC2C1=NCCN1 (stereo not drawn): 0%

###

- System: HEK-293T
- Protocol Text: Multiplex assay against HEK293T
- Type: toxicity, cell-based
- Test Context: human, 48 h, 1 µM, compound concentration 1 uM, replicate 2
Parameter Measured: Population Tubulin-Different-Phenotype (%)

1. Cc1c(CC(=O)O)c2cccnc2n1Cc1ccc(S(C)(=O)=O)cc1C(F)(F)F [FEVIPIPRANT]: 10%
2. CC[C@@H](C)Nc1nc(C)nc2c(-c3ccc(OC)nc3C)c(C)nn12 [PEXACERFONT]: 19%
3. Cc1noc(-c2ccc(-c3ccc(CC(=O)O)cc3)cc2)c1NC(=O)O[C@H](C)c1ccccc1Cl: 21%
4. Cl.NCCc1ccc(O)c(O)c1 [DOPAMINE HYDROCHLORIDE]: 7%
5. CC(C)COc1ccc(CNC(=O)N(Cc2ccc(F)cc2)C2CCN(C)CC2)cc1 [PIMAVANSERIN]: 21%

###

- System: U2OS
- Protocol Text: Multiplex assay against U2OS
- Format: toxicity, cell-based
- Test Context: human, 48 h, 1 µM, compound concentration 1 uM, replicate 2
Reported Population Healthy Nuclei (%) by item:
Parameter Measured: Population Healthy Nuclei (%)

1. C[C@H](N)COC(=O)[C@@H](CCCCN)NC(=O)Cc1c(-c2ccc3ccccc3c2)[nH]c2c1ccc1ccccc12: 73
2. CC(=O)Nc1cccc2c1c(Sc1ccc(Cl)cc1)c(C)n2CC(=O)O [AZD1981]: 82
3. COc1ccccc1N1CCN(C[C@@H](C(=O)NC(C)(C)C)c2ccccc2)CC1.Cl.Cl: 72
4. N#Cc1c(Oc2cccc(OS(=O)(=O)CCCC(F)(F)F)c2)cccc1C(F)(F)F: 73
5. CCCCCC(O)/C=C/[C@H]1C(=O)CC(O)C1C/C=C\CCCC(=O)O (some centres not stated): 79
6. Cc1sc2c(c1C)C(c1ccc(Cl)cc1)=N[C@@H](CC(=O)NCCCCCCCCNC(=O)COc1cccc3c1C(=O)N(C1CCC(=O)NC1=O)C3=O)c1nnc(C)n1-2 (some centres not stated): 79
7. CC(C)COc1ccc(CNC(=O)N(Cc2ccc(F)cc2)C2CCN(C)CC2)cc1 [PIMAVANSERIN]: 76
8. Cl.NCCc1ccc(O)c(O)c1 [DOPAMINE HYDROCHLORIDE]: 73
9. CC(C)c1noc(N2CCC(COc3ccc(-c4ccc(S(C)(=O)=O)cc4)nc3)CC2)n1 [GSK-1292263]: 74
10. O=C1[C@H](Cc2ccc(O)cc2)N2C(=O)CCN(C(=O)NCc3ccccc3)[C@H]2CN1Cc1cccc2ccccc12: 67
11. CN[C@@H](C)C(=O)N[C@H](C(=O)N1CCC[C@H]1C(=O)Nc1snnc1-c1ccccc1)C1CCCCC1 [GDC-0152]: 30
12. CCCCC1=NC2(CCCC2)C(=O)N1Cc1ccc(-c2ccccc2-c2nnn[nH]2)cc1 [IRBESARTAN]: 76
13. CCCCC(=O)N(Cc1ccc(-c2ccccc2-c2nnn[nH]2)cc1)[C@H](C(=O)O)C(C)C: 68
14. Cc1c(CC(=O)O)c2cccnc2n1Cc1ccc(S(C)(=O)=O)cc1C(F)(F)F [FEVIPIPRANT]: 67
15. COc1cccc2c1c(NS(=O)(=O)c1ccc(Cl)s1)nn2Cc1cccc(CNC(=O)C(C)(C)O)c1: 68
16. Cl.N=C(N)NC(=O)Cc1c(Cl)cccc1Cl [GUANFACINE HYDROCHLORIDE]: 73
17. O=C(NCCN1CCC(n2c(=O)[nH]c3cc(Cl)ccc32)CC1)c1ccc(F)cc1 [HALOPEMIDE]: 69

###

- System: HEK-293T
- Protocol Text: Multiplex assay against HEK293T
- Type: toxicity, cell-based
- Test Context: human, 12 h, 1 µM, compound concentration 1 uM, replicate 1
So basically: is Population Apoptotic (%) under 30%? Then 1. Not under? Then -1.

1) Cc1cnc(-c2cc(N3CCN(C(=O)CCS(C)(=O)=O)CC3)ncc2Cl)c(C)c1: 1
2) N#Cc1cc(F)cc(-c2nc(-c3ccc(F)cn3)no2)c1: -1
3) CC(=O)Nc1cccc2c1c(Sc1ccc(Cl)cc1)c(C)n2CC(=O)O: -1
4) CC(C)(C)c1cc(NC(=O)Nc2ccc(-c3cn4c(n3)sc3cc(OCCN5CCOCC5)ccc34)cc2)no1: 1
5) COc1ccccc1N1CCN(C[C@@H](C(=O)NC(C)(C)C)c2ccccc2)CC1.Cl.Cl: 1
6) O=C1[C@H](Cc2ccc(O)cc2)N2C(=O)CCN(C(=O)NCc3ccccc3)[C@H]2CN1Cc1cccc2ccccc12: -1
7) COC[C@@H](c1ccc(C(F)(F)F)cc1)N1CCN(C2(C)CCN(C(=O)c3c(C)ncnc3C)CC2)C[C@@H]1C.O=C(O)/C=C\C(=O)O [VICRIVIROC MALEATE]: -1
8) O=C(NCCN1CCC(n2c(=O)[nH]c3cc(Cl)ccc32)CC1)c1ccc(F)cc1 [HALOPEMIDE]: -1
9) CCCCC1=NC2(CCCC2)C(=O)N1Cc1ccc(-c2ccccc2-c2nnn[nH]2)cc1: 1
10) Cc1c(CC(=O)O)c2cccnc2n1Cc1ccc(S(C)(=O)=O)cc1C(F)(F)F: 1
11) CN1CCN(c2cc(-c3ccccc3)nc(N)n2)CC1: -1
12) CCc1cc2cc(NS(=O)(=O)c3ccc(C#N)cc3)ccc2n(CC)c1=O: -1
13) Cl.N=C(N)NC(=O)Cc1c(Cl)cccc1Cl [GUANFACINE HYDROCHLORIDE]: 1
14) CCCOc1ccc2[nH]cc(C3=CCNCC3)c2n1.Cl: -1
